Reference source: ChEMBL document CHEMBL1154807

Tested on: Staphylococcus aureus
Assay: Antibacterial activity against erythromycin-susceptible Staphylococcus aureus ATCC 25923 by standard dilution assay
Assay type: functional
Observed property: MIC (µg/mL)
Reply with just the number (in µg/mL).

Worked examples, 8 compounds total:
Compound structure | Reading unit | MIC
CC[C@H]1OC(=O)[C@H](C)[C@@H](OC(=O)NCCc2ccccc2)[C@H](C)[C@@H](O[C@@H]2O[C@H](C)C[C@H](N(C)C)[C@H]2O)[C@](C)(O)C[C@@H](C)CN(C)[C@H](C)[C@H]2OC(=O)O[C@@]21C | µg/mL | 64
CCCCNC(=O)O[C@H]1[C@H](C)[C@@H](O[C@@H]2O[C@H](C)C[C@H](N(C)C)[C@H]2O)[C@](C)(O)C[C@@H](C)CN(C)[C@H](C)[C@H]2OC(=O)O[C@]2(C)[C@@H](CC)OC(=O)[C@@H]1C | µg/mL | 64
CC[C@H]1OC(=O)[C@H](C)[C@@H](OC(=O)NCCc2ccccc2Cl)[C@H](C)[C@@H](O[C@@H]2O[C@H](C)C[C@H](N(C)C)[C@H]2O)[C@](C)(O)C[C@@H](C)CN(C)[C@H](C)[C@H]2OC(=O)O[C@@]21C | µg/mL | 32
CC[C@H]1OC(=O)[C@H](C)[C@@H](OC(=O)NCc2ccc(OC)cc2)[C@H](C)[C@@H](O[C@@H]2O[C@H](C)C[C@H](N(C)C)[C@H]2O)[C@](C)(O)C[C@@H](C)CN(C)[C@H](C)[C@H]2OC(=O)O[C@@]21C | µg/mL | 128
CCCCCNC(=O)O[C@H]1[C@H](C)[C@@H](O[C@@H]2O[C@H](C)C[C@H](N(C)C)[C@H]2O)[C@](C)(O)C[C@@H](C)CN(C)[C@H](C)[C@H]2OC(=O)O[C@]2(C)[C@@H](CC)OC(=O)[C@@H]1C | µg/mL | 64
CC[C@H]1OC(=O)[C@H](C)[C@@H](O[C@H]2C[C@@](C)(OC)[C@@H](O)[C@H](C)O2)[C@H](C)[C@@H](O[C@@H]2O[C@H](C)C[C@H](N(C)C)[C@H]2O)[C@](C)(OC)C[C@@H](C)C(=O)[C@H](C)[C@@H](O)[C@]1(C)O | µg/mL | 0.12
CC[C@H]1OC(=O)[C@H](C)[C@@H](O)[C@H](C)[C@@H](O[C@@H]2O[C@H](C)C[C@H](N(C)C)[C@H]2OC(C)=O)[C@@](C)(OC)C[C@@H](C)C(=O)[C@H](C)[C@@H](O)[C@]1(C)O | µg/mL | 128
CC[C@H]1OC(=O)[C@H](C)[C@@H](OC(=O)NCc2ccccc2)[C@H](C)[C@@H](O[C@@H]2O[C@H](C)C[C@H](N(C)C)[C@H]2O)[C@](C)(O)C[C@@H](C)CN(C)[C@H](C)[C@H]2OC(=O)O[C@@]21C | µg/mL | 64

Inquiry: Record CC[C@H]1OC(=O)[C@H](C)[C@@H](OC(=O)NCc2ccc(F)cc2)[C@H](C)[C@@H](O[C@@H]2O[C@H](C)C[C@H](N(C)C)[C@H]2O)[C@](C)(O)C[C@@H](C)CN(C)[C@H](C)[C@H]2OC(=O)O[C@@]21C : what is its MIC with Staphylococcus aureus?
Reply text: 64
